- System: P388 leukemia ip, CD2F1 mice, survival T/C
- Assay Details: NCI In Vivo Anticancer Drug Screen. Data for tumor model P388 Leukemia (intraperitoneal) in CD2F1 (CDF1) mice
- Details: endpoint: median survival time; dose: 50.0 mg/kg/injection; schedule: Q01DX005 (ip); vehicle: Klucel (hydroxypropylcellulose) (HPC); higher = longer survival
Inconclusive results and toxic doses are left out.
Observable: T/C

CCN(CC)C(=Nc1ccccc1)NC#N :: 110 % of control
O=P(c1ccccc1)(c1ccccc1)c1ccccc1OCc1cccc(COc2ccccc2P(=O)(c2ccccc2)c2ccccc2)n1 :: 99 % of control
NC(Cc1ccc(O)cc1)C(=O)N/N=C/c1ccccc1Cl (stereo unspecified) :: 100 % of control

Provide T/C values for the following items, in order.
1. NC(=S)SCCC(=O)N1CCCC1
2. O=S1(=O)CC(N2CCOCC2)C2=C(O1)c1ccccc1OCC2 (stereo unspecified)
3. O=C(O)CNC(=O)/C=C/c1ccc(O)c(O)c1

97 % of control
98 % of control
114 % of control
